Target: Ubiquitin carboxyl-terminal hydrolase 17-like protein 5 (Homo sapiens) (UniProt A8MUK1)
Sequence (A8MUK1 whole entry, looked up): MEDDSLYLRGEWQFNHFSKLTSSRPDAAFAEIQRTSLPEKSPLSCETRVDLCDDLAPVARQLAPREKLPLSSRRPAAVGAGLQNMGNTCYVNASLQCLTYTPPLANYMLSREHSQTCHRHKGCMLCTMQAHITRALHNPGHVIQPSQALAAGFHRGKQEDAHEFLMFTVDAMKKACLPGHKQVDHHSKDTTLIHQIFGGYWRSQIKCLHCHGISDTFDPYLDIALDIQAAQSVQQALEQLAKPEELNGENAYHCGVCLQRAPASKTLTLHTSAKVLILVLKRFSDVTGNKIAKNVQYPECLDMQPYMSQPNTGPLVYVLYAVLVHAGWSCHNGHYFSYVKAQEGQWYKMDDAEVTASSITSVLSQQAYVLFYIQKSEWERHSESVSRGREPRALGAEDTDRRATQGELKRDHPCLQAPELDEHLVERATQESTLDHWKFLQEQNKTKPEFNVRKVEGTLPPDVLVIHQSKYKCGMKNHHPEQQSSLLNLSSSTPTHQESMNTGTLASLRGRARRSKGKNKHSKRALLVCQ
Assay: ubiquitin-specific protease 17 DUB inhibitors, concentration-effect assay, cell-free, verification of initial screening actives (AID 1645864)
Details: purified USP17, ubiquitin-rhodamine cleavage fluorescence, 3 h
Calls of active or inactive are those of the source.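 The calls were made as follows: active = maximal inhibition of USP17 at or above 30% in the confirmation dose-response, a value not among the printed readouts; inactive = the rest.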
Response enum: 1 (yes) (active), 0 (no) (inactive)

Please share the test call associated with CCOC(=O)c1ccc(NC(=O)Cn2c(=O)n(CC(=O)NCc3ccco3)c(=O)c3ccccc32)cc1 .
1 (yes)

Would you mind telling me which call this test gave COc1ccc(Nc2ncc(C(=O)Nc3ccc(Oc4ccccc4)cc3)c3ccccc23)cc1 ?
0 (no)

Please indicate how the test categorized O=C(NC1CCCCC1)c1cc2c(cn1)[nH]c1ccccc12 .
0 (no)

Test call for this compound, please: O=C(Nc1ccc(SCc2nnc(-c3ccccc3)o2)cc1)C1CC1
0 (no)

Call for entry CCN(c1ccc(NC(=O)CSc2nnc(-c3ccccc3)n2-c2ccc(OC)c(OC)c2)cc1)C(C)C :
1 (yes)

---

Molecular target: Ubiquitin carboxyl-terminal hydrolase 17-like protein 5 (Homo sapiens)
Assay: ubiquitin-specific protease 17 DUB inhibitors, concentration-effect assay, cell-free, verification of initial screening actives (AID 1645864)
Conditions: purified USP17, ubiquitin-rhodamine cleavage fluorescence, 3 h
Calls of active or inactive are those of the source.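 How the source made its calls: active means maximal inhibition of USP17 at or above 30% in the confirmation dose-response, a value not among the printed readouts; inactive means the rest.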
Your reply should match one of these outcome classes. active, inactive

What did the test return for CSc1nc(Cc2ccc(Cl)cc2)nc2ccccc12 ?
inactive

What outcome does the record of this test show for O=C(Nc1nc2c(s1)COCC2)c1cc(-c2ccco2)[nH]n1 ?
inactive

In this assay, the call recorded for COc1ccc(-c2cc3c(=O)n(CC(=O)Nc4ccccc4F)ccn3n2)cc1OC was what?
active

Which outcome did this test record for the molecule O=C(CC(C(=O)Nc1ccc2c(c1)OCO2)C(=O)c1ccccc1)Nc1ccc(Cl)cc1F (stereo not given) ?
active

Write down the call the test reported for this molecule. Item: CCOC(=O)C1C(c2ccc(Br)cc2)C2(C(=O)c3ccccc3C2=O)C2C=Cc3ccccc3N12 (stereo not given)
inactive

GET /call?item= Cc1ccccc1NC(=O)c1ccc(N2CCCCC2)nn1 returns the recorded outcome of this test.
inactive

Please state the recorded outcome for this molecule: CCC(C)Oc1cccc(C(=O)Nc2ccc(CN3CCOCC3)cc2)c1 (stereo not given)
inactive

What call does the record list for CC(=O)c1cc2c(=O)c3c(C(=O)O)c(O)c(O)cc3oc2c(C(C)=O)c1-c1coc2cc(O)c(O)c(C(=O)O)c2c1=O ?
active

Per the records of this test, what outcome belongs to COC1=CC(=O)c2c(O)c3c(c(C)c2C1=O)C[C@@]1(O)[C@H](O[C@H]2CC[C@H](O[C@H]4C[C@@](C)(O)[C@H](OC(=O)c5c(C)ccc(C)c5O)[C@H](C)O4)[C@@H](C)O2)C(=O)C(C(C)=O)=C(O)[C@@]1(O)C3=O ?
active

Dear colleague, could you share the recorded outcome for CCc1ccc(-n2nc(C)c3c2NC(=O)CC3C(=O)c2ccc3c(c2)OCCO3)cc1 (stereo not given) when you have a moment?
active

Field: outcome | Entry: O=C(Cn1c(-c2ccccc2)ncc(C(=O)NC2CC2)c1=O)Nc1ccccc1
active

What was the test verdict on CC(=O)N1CCc2cc(S(=O)(=O)NCc3ccc(C)cc3)ccc21 ?
inactive

Outcome? CCOC(=O)CSc1nnc(-c2cnn(-c3ccccc3)c2N)o1
active

Status in this test for CCOc1ccc(NC(=O)Cn2c(=O)n(CCCCCC(=O)NCc3ccc(F)cc3)c(=O)c3sccc32)cc1 ?
active

Field: outcome | Entry: CS(=O)(=O)NC1CCCN(C(=O)Nc2cccc3ccccc23)C1 (stereo not given)
active

# outcome recorded in this test, key = COc1ccccc1OCCNC(=O)c1cc(C2CC2)nc2c1cnn2C(C)C
inactive

Give the logged outcome of this assay for the following molecule: COc1cccc(S(=O)(=O)N2CCn3nc(C(C)(C)C)cc3C2)c1
active

Write down the call the test reported for this molecule. Item: Cc1nnc(C(=O)Nc2ccc(C(=O)NCc3ccccc3C)cc2)s1
active

For Cc1ccc(C)c(NC(=O)CCc2nc(CSc3nc4ccccc4o3)no2)c1 , which call appears in the assay record?
active

Per the assay record, what outcome was assigned to COc1ccc(NC(=O)C2CCCN(S(=O)(=O)N3CCCCCC3)C2)cc1 (stereo not given) ?
active

---

Target: Ubiquitin carboxyl-terminal hydrolase 17-like protein 5 (Homo sapiens) (UniProt A8MUK1)
Experiment: ubiquitin-specific protease 17 DUB inhibitors, concentration-effect assay, cell-free, verification of initial screening actives (AID 1645864)
Settings: purified USP17, ubiquitin-rhodamine cleavage fluorescence, 3 h
Calls of active or inactive are those of the source.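 Rule for the calls: active = maximal inhibition of USP17 at or above 30% in the confirmation dose-response, a value not among the printed readouts; inactive = the rest.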
Please reply with one of these outcomes: active, inactive

Status in this test for Cc1oc(C2CC2)cc1C(=O)N1CCC2(CC1)CC1(CO2)Nc2ccccc2-n2cccc21 (stereo not given) ?
inactive

Tell me the recorded outcome of this test for COc1ccc(-c2cc(C(F)F)n3ncc(C(=O)Nc4ccc5c(c4)OCCO5)c3n2)cc1 .
inactive

Please state the recorded outcome for this compound: O=C(Nc1cccc(-c2noc(C3CCC3)n2)c1)C1CC(=O)N(c2ccccc2)C1 (stereo not given)
active

Tell me the recorded outcome of this test for COc1cccc(CCNC(=O)CCn2c(=O)c(C)nc3cc(C)c(C)cc32)c1 .
inactive

What call does the record list for Cc1ccccc1NC(=O)CNc1nc(Nc2ccccc2)nc(Nc2ccccc2)n1 ?
active

Please state the recorded outcome for this compound: CCCn1c(=O)c(-c2ccc(C(=O)NCc3ccc(OC)cc3)cc2)nc2cccnc21
active

Outcome logged for Cc1ccc(CNC(=O)CCCn2c(=O)c3sccc3n(CC(=O)OCc3ccccc3)c2=O)cc1 in this assay:
active

Kindly provide the recorded test outcome for the following compound: O=C(COc1ccc(F)cc1)Nc1cnc(-c2ccc(Cl)cc2)nc1
active

Recorded call for Cc1ccc(C)c(S(=O)(=O)N2CCC3(CC2)NC(=O)c2ccccc2N3)c1 ?
active

Lab log entry: Cc1ccc(S(=O)(=O)N(C)C)cc1NC(=O)Cc1ccc(Cl)c(Cl)c1 — outcome as called in the assay?
inactive

---

Target: Ubiquitin carboxyl-terminal hydrolase 17-like protein 5 (Homo sapiens) (UniProt A8MUK1)
Experiment: ubiquitin-specific protease 17 DUB inhibitors, concentration-effect assay, cell-free, verification of initial screening actives (AID 1645864)
Conditions: purified USP17, ubiquitin-rhodamine cleavage fluorescence, 3 h
The source made the active and inactive calls.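 How the source made its calls: active means maximal inhibition of USP17 at or above 30% in the confirmation dose-response, a value not among the printed readouts; inactive means the rest.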
Just give me one of these, please: active, inactive

Please state the recorded outcome for this compound: CCc1nc(N2CCCC2=O)sc1C(=O)Nc1cccc(C(C)=O)c1
inactive

Give the logged outcome of this assay for the following compound: COc1cccc(/C=C/c2nc(C#N)c(N3CCN(C(=O)c4cccs4)CC3)o2)c1
inactive

Would you mind telling me which call this test gave CC(=O)C1=C(O)[C@]2(O)C(=O)c3c(c(C)c4ccc(C)c(O)c4c3O)C[C@H]2[C@@H](N)C1=O ?
active

Which outcome was entered for the compound CC(=O)Nc1ccc(S(=O)(=O)Nc2ccc(Nc3ccc(-n4cccn4)nn3)cc2)cc1 in this test?
active

Identify the outcome logged in this assay for the compound shown: Cc1ccc2c(c1)[C@]1(C(=O)N2)[C@@H](C(=O)c2ccccc2)[C@]2(C(=O)Nc3ccccc32)[C@@H]2CCCN21
active

Status in this test for O=C(COc1ccc(Cl)cc1)NCc1nnc(SCC(=O)NCc2ccc3c(c2)OCO3)o1 ?
active

// outcome(item) with item = COc1ccccc1NS(=O)(=O)c1ccc2oc(SCC(=O)c3ccccc3)nc2c1
inactive

I'd appreciate the recorded outcome for Cc1c(CC(=O)N2CCN(c3ncccn3)CC2)c(=O)oc2cc(O)ccc12 from this test.
active

Query: recorded result category for CC1CCN(c2nc(F)c3c(c2F)S(=O)(=O)CCN3Cc2cccnc2)CC1 in this test
inactive

Hi, do you know how Cc1cccc(CNC(=O)c2ccc(-c3nnc(-c4cccc(C)c4)o3)cc2)c1 came out in this test?
active

# outcome recorded in this test, key = COc1ccc(NC(=O)c2ccnc(Nc3ccc(OC)cc3)c2)cc1
active

For this compound, state the assay outcome: O=C(CSc1nnnn1-c1ccccc1)Nc1ccccc1
active

Hello, I am checking results. What call was entered for CCOc1ccc(NC(=O)COc2cccc(-n3cnnn3)c2)cc1 ?
inactive

// outcome(item) with item = COc1cccc(NC(=O)C2CCN(C(=O)c3cc(-c4cccnc4)n[nH]3)CC2)c1
inactive

What call does the record list for Cc1nn(-c2cc(N3CCOCC3)ncn2)c(C)c1CCC(=O)Nc1ccc(C(C)C)cc1 ?
active

Name the outcome recorded for Cn1c(-c2nnc(SCC(=O)NCCc3ccccc3)o2)cc2ccccc21 in the assay.
active

Recorded test outcome, item CC(C)=CCCC1(C)OC2=C(C(=O)c3cc(O)cc(O)c3C2=O)[C@H]2C=C(C)CC[C@H]21 (some centres undefined)
active

Tell me the assay call for Cc1ccc(C)c(-c2cc3c(=O)n(Cc4noc(CN5CCCCC5)n4)ccn3n2)c1 please.
inactive

Given CCc1c(Cl)c(O)c(Cl)c(O)c1C(=O)O[C@H]1C(C)O[C@@H](OC/C2=C\C=C\CC(O)/C(C)=C/C(CC)C(O[C@@H]3OC(C)(C)[C@H](O)C(OC(=O)C(C)C)[C@@H]3O)/C(C)=C/C(C)=C/CC(C(C)O)OC2=O)[C@@H](OC)C1O (some centres undefined) , state the outcome it received in this test.
inactive

Hi, do you know how CCc1nc(SCC(=O)Nc2ccccc2Cl)c2oc3ccccc3c2n1 came out in this test?
active

Write down the call the test reported for this compound. Item: CC1(O)CC(=O)c2c(cc3cc(O)cc(O)c3c2O)C1 (centres undefined)
active

What outcome does the record of this test show for O=C(NCc1ccc(-c2nc3cnccc3o2)cc1)c1ccccc1F ?
active

Name the outcome recorded for CCC(=O)OCc1cnc(C)c2oc(=O)c(-c3nc(-c4ccccc4)no3)cc12 in the assay.
inactive

# fetch the recorded call for O=C(O)c1ccccc1C(=O)Nc1ccc(SC(C(=O)Nc2ccccc2)c2ccccc2)cc1 (centres undefined) here
inactive

Dear all, I need the recorded test outcome for CCc1ccc(-c2nc(SCC(=O)Nc3ccc4[nH]c(=O)[nH]c4c3)n[nH]2)cc1 , thank you.
active

Please let me know the test result on file for COc1cc(Cl)ccc1C(=O)Nc1cccc(-n2cnnn2)c1C .
active

Give the logged outcome of this assay for the following compound: Cc1cccc(-n2cnc(C(=O)NCc3ccc(F)cc3)c2)n1
active

Call for entry c1ccc(-n2nnc(-c3noc(-c4ccccn4)n3)c2-c2ccncc2)cc1 :
active

Identify the outcome logged in this assay for the compound shown: COc1ccc(CCNC(=O)CCn2c(=O)c3ccccc3n(Cc3ccc(C)cc3)c2=O)cc1OC
active

For Nc1c(C(=O)NCCc2ccccc2)nnn1-c1ccc(F)cc1 , what call appears in the results of this test?
active

Hi team, can someone confirm the assay call for COC(=O)c1ccc(NC(=O)CSc2nnc(-c3ccc(O)cc3)n2Cc2ccco2)cc1 ?
active

For O=C(NCc1nc(-c2ccc3c(c2)[nH]c(=O)n3C2CCCC2)no1)c1ccccc1 , which call appears in the assay record?
inactive

I'd appreciate the recorded outcome for CCOc1ccc2[nH]c3c(=O)n(CCc4ccc(OC)cc4)cnc3c2c1 from this test.
active

Please state the recorded outcome for this compound: C=Cc1ccc(Cn2cccc(S(=O)(=O)N3CCCC3)c2=O)cc1
active

Fill in: this test's call for O=C(Nc1ccc(Br)cn1)c1nc2ccccc2nc1N1CCCCC1 is ___
inactive

// outcome(item) with item = COc1cc2c(cc1OC)C(COc1ccccc1OC)N(C(=O)c1ccc3ccccc3c1)CC2 (centres undefined)
inactive

How did this test come out for O=C(NCc1ccncc1)C1CCN(c2cncnc2N2CCCCC2)CC1 ?
inactive

GET /call?item= NC(=O)c1nc(-c2cccnc2)nc2c1[nH]c(=O)n2-c1ccc2c(c1)OCO2 returns the recorded outcome of this test.
active

# fetch the recorded call for COc1c(O)c(O)c2c(=O)cc(-c3ccc(O)cc3)oc2c1OC here
active

Where these numbers come from: PubChem BioAssay AID1645864
